ASSAY_METHOD_TEXT: activity coefficient (dimensionless); of the first substance listed, at infinite dilution; xn = mol fraction of the nth substance listed
TEST_PARAMETERS: 333.15 K; 101 kPa; Liquid; Chromatography; x1 = 0
Consider the following compounds; for each one, report its activity coefficient.
Could you keep your reply to the number by itself?

Query string: Respond only with activity coefficient recorded for CC1CCCC1 [methylcyclopentane] + CCC[N+]1(C)CCCC1.O=S(=O)([N-]S(=O)(=O)C(F)(F)F)C(F)(F)F
Result string: 10.3

Query string: Respond only with activity coefficient recorded for CCCCCCCC [octane] + CCCC[N+]1(C)CCCC1.O=S(=O)([N-]S(=O)(=O)C(F)(F)F)C(F)(F)F
Result string: 25.3

Query string: Respond only with activity coefficient recorded for ClC(Cl)(Cl)Cl [tetrachloromethane] + CCCC[N+]1(C)CCCC1.O=S(=O)([N-]S(=O)(=O)C(F)(F)F)C(F)(F)F
Result string: 2.45

Query string: Respond only with activity coefficient recorded for CCCCCCCCCCCC [dodecane] + CCCC[N+]1(C)CCCC1.O=S(=O)([N-]S(=O)(=O)C(F)(F)F)C(F)(F)F
Result string: 93.8

Query string: Respond only with activity coefficient recorded for CCC(=O)CC [pentan-3-one] + CCC[N+]1(C)CCCC1.O=S(=O)([N-]S(=O)(=O)C(F)(F)F)C(F)(F)F
Result string: 0.82

Query string: Respond only with activity coefficient recorded for CCc1ccccc1 [ethylbenzene] + CCCC[N+]1(C)CCCC1.O=S(=O)([N-]S(=O)(=O)C(F)(F)F)C(F)(F)F
Result string: 1.85
